tested on: HCC-44 cells; experiment: 2D cell proliferation (alamarBlue); format: cell-based; details: Homo sapiens, HCC44; HCC-44 (lung, G12C), 72 h
VALUE KIND: IC50 (µM)
Report the value in µM with no unit label.

N=C(CSS(=O)(=O)O)NCC12CC3CC(CC(C3)C1)C2 [×6506]: 28

// next item, IC50 requested
Exam item: Requested read-out: IC50. Entry: CCOc1ccc(C(=O)c2ccc(O)c(O)c2O)cc1 [×1540, 2,3,4-TRIHYDROXY-4'-ETHOXYBENZOPHENONE]
Marked response: 49

* * *

The following molecules are shown together with reported Average RLU (FIMM Screening-2, scaffold based) values.
system: Hsp90/Cdc37; assay: FIMM screening in split Renilla luciferase assay with hypomorphic NRL-Hsp90 construct, 20 μM; format: biochemical; details: mean of 3 wells, DMSO 51006
Please state the figure in RLU; there is no need to write the unit.

Exam item: Average RLU (FIMM Screening-2, scaffold based) for O=C(CSc1nc2ccccc2s1)c1ccc(O)c(O)c1 ?
Marked response: 32657

Exam item: Give its Average RLU (FIMM Screening-2, scaffold based) value. Item: C=CCNC1=C2C[C@@H](C)C[C@H](OC)[C@H](O)[C@@H](C)/C=C(\C)[C@H](OC(N)=O)[C@@H](OC)/C=C\C=C(/C)C(=O)NC(=CC1=O)C2=O [17-AAG, 17-allylamino-17-demethoxy-geldanamycin, reference compound]
Marked response: 45379

Exam item: Please report the recorded Average RLU (FIMM Screening-2, scaffold based) for N=C(N)SCc1cc(=O)[nH]c(=O)[nH]1 .
Marked response: 19772

Exam item: Requested field: Average RLU (FIMM Screening-2, scaffold based). Item: C/C1=C\[C@H](C)C[C@H](C)[C@H](Cc2cnco2)OC(=O)/C(C)=C/[C@H](C)C[C@H](C)[C@H](Cc2cnco2)OC1=O [conglobatin A, reference compound]
Marked response: 25048

Exam item: Which Average RLU (FIMM Screening-2, scaffold based) value is on record for Cc1cc(OCC(=O)Nc2ccccc2C(=O)O)cc(C)c1Cl ?
Marked response: 33660

Exam item: Tell me the measured Average RLU (FIMM Screening-2, scaffold based) of O=C(O)c1cc(S(=O)(=O)Nc2cccc(Cl)c2)ccc1O , please.
Marked response: 37332

* * *

As shown below, each of these compounds has a reported Average RLU (FIMM Screening-1) value.
system: Hsp90/Cdc37; assay: FIMM screening in split Renilla luciferase assay with hypomorphic NRL-Hsp90 construct, 20 μM; assay type: biochemical; settings: mean of 3 wells, DMSO 50019
Note: state the figure and append the unit.

Study these solved cases before continuing.
Cc1ccc(Nc2ccc(C(=O)O)cc2N)cc1: 28120 RLU
CCOc1ccc(C(=O)c2ccc(O)c(O)c2O)cc1 [×1540, 2,3,4-TRIHYDROXY-4'-ETHOXYBENZOPHENONE]: 37962 RLU
O=c1c(O)cc([C@H]2Oc3cc(O)cc(O)c3C[C@H]2O)cc2c([C@H]3Oc4cc(O)cc(O)c4C[C@H]3O)cc(O)c(O)c12: 12261 RLU
C/C1=C\[C@H](C)C[C@H](C)[C@H](Cc2cnco2)OC(=O)/C(C)=C/[C@H](C)C[C@H](C)[C@H](Cc2cnco2)OC1=O [conglobatin A, reference compound]: 25349 RLU
O=C(O[C@@H]1Cc2c(O)cc(O)cc2O[C@@H]1c1cc(O)c(=O)c2c(O)c(O)cc([C@H]3Oc4cc(O)cc(O)c4C[C@H]3OC(=O)c3cc(O)c(O)c(O)c3)c2c1)c1cc(O)c(O)c(O)c1 [compound 2, Theaflavin 3,3-digallate]: 5883 RLU

Now for the compound whose Average RLU (FIMM Screening-1) we want.
Exam item: # Average RLU (FIMM Screening-1) lookup, item NC(CSS(=O)(=O)O)=NCCC12CC3CC(CC(O)(C3)C1)C2
Marked response: 10978 RLU
